Study Target: T1, HLA-DP DPB1*02:01 (human)
T1 chain 1: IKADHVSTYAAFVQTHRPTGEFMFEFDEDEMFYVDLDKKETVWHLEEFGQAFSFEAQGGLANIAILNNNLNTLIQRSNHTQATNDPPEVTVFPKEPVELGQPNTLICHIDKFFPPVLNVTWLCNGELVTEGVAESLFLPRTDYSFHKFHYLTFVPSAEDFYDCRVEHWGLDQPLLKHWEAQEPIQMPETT
T1 chain 2: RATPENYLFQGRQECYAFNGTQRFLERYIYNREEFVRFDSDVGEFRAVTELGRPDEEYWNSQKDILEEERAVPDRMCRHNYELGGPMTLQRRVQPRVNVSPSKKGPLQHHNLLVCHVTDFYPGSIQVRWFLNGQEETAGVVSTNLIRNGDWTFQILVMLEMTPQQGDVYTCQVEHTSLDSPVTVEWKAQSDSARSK
Test: competition assay
pIC50: −log10 of the molar value.
Measured Quantity: pIC50

[P] LIINWLQEALSSASL (agrees with the claims) [ApoB100 peptide 3563.0015]
[Q] KIVSLIKNLLVALKD [ApoB100 peptide 3563.0028]
## Task Of the pair P and Q , name the member with the lesser recorded pIC50. Write the label of whichever entry you select.
## Result P
(P: 4.79, Q: 6.18)

[A] DKRLAAYLMLMRSPS [ApoB100 peptide 3563.0004]
[B] VEFVTNMGIIIPDFA (agrees with the claims) [ApoB100 peptide 3563.0007]
## Task Lower value for measured pIC50? Options: A , B Kindly give the label for the entry you pick.
## Result A
(A: 5.78, B: 7.92)
